Values were extracted from the Human Domainome abundance scans (Beltran et al. 2025).

B1: Zinc finger MYM-type protein 2, residues 463 to 506; numbered along this chain, Q9UBW7 (parent)
chain: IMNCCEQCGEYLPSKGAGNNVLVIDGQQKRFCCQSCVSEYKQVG

# Variants of: B1
# protocol_summary: abundance fitness (aPCA) (normalised: wild type 0, dead -1); higher = more abundant; growth selection in yeast, the domain comes from the species named
# condition_description: Homo sapiens
Returns one of criterion met or criterion not met; criterion met when abundance fitness is >= -0.2.

sequence_record="IMNCCEQCGEYLPSKGAGNNVLVIDGQQKRWCCQSCVSEYKQVG [F31W]" category="criterion not met"
sequence_record="IMNCCEQCGEYLPSKGAGNNVLVIDGPQKRFCCQSCVSEYKQVG [Q27P]" category="criterion not met"
sequence_record="IMNCCEHCGEYLPSKGAGNNVLVIDGQQKRFCCQSCVSEYKQVG [Q7H]" category="criterion met"
sequence_record="IMNCCEQCGEHLPSKGAGNNVLVIDGQQKRFCCQSCVSEYKQVG [Y11H]" category="criterion met"
sequence_record="IMNCCEQCGEYLPSKGAGNNVLVVDGQQKRFCCQSCVSEYKQVG [I24V]" category="criterion met"
sequence_record="IMNCCEQCGEYLPSKGAGNNVLVIDQQQKRFCCQSCVSEYKQVG [G26Q]" category="criterion met"
sequence_record="IMNCCEQCGEYLPSKGAGNNVLVIDGQQKRFCCQSCVSEYKQGG [V43G]" category="criterion met"
sequence_record="IMNCCEQCGEYLPSKGAGHNVLVIDGQQKRFCCQSCVSEYKQVG [N19H]" category="criterion met"
sequence_record="IMNCCEQCGEYLPSKGAGNNVLVIDGQQKRFCCQSCVSEYKQSG [V43S]" category="criterion met"
sequence_record="IMNCCEQCGEYLPSKGAGNNVLVIDGQQKRFCCQRCVSEYKQVG [S35R]" category="criterion met"
sequence_record="IMNCCEQCGEYLPSKGAGNNVLVIDGQQKRFCCQSCVSEVKQVG [Y40V]" category="criterion met"
sequence_record="IMNCCEQCGEYLPSKGAGNNVLVIDGQAKRFCCQSCVSEYKQVG [Q28A]" category="criterion met"
sequence_record="IMNCCEQCGEYLPSKGAGNNVLVIDGQQKRFCCQSCVSELKQVG [Y40L]" category="criterion met"
sequence_record="IMNCCEQCGEYLPSKGAGNNVLVIDGQQKRFMCQSCVSEYKQVG [C32M]" category="criterion not met"
sequence_record="IMNCCEQCGEYLPSKGAGNNVLRIDGQQKRFCCQSCVSEYKQVG [V23R]" category="criterion met"
sequence_record="IMNCCEQCGENLPSKGAGNNVLVIDGQQKRFCCQSCVSEYKQVG [Y11N]" category="criterion met"
sequence_record="IMNCCEQCGEYLPSKGAGNNVLVIDGQQKRPCCQSCVSEYKQVG [F31P]" category="criterion not met"
sequence_record="IMNCCEQCGEYLPSKGAGNNVLVIDGQQKRFCCQSCVSEYKQVL [G44L]" category="criterion not met"
sequence_record="IMNCCEQCGEYLPSKGAGNNVLVIKGQQKRFCCQSCVSEYKQVG [D25K]" category="criterion met"
sequence_record="IMNCCEQCGEYLPSKGAGNNVLVIGGQQKRFCCQSCVSEYKQVG [D25G]" category="criterion met"
sequence_record="IMNCCEQCGEYLPSKGAGNNVLVIDGQQKRFCCQSCVSEYKMVG [Q42M]" category="criterion met"
sequence_record="IMNCCEQCGEYLPSKGAGGNVLVIDGQQKRFCCQSCVSEYKQVG [N19G]" category="criterion met"
sequence_record="IMNCCEQCGEYLPSKGAGNNVLVIDGQQKRFCCWSCVSEYKQVG [Q34W]" category="criterion not met"
sequence_record="IMNCCEQEGEYLPSKGAGNNVLVIDGQQKRFCCQSCVSEYKQVG [C8E]" category="criterion not met"
sequence_record="IMNCCEQCGEYLPSKGAGNNVLVIDGQQKRFCCQSCDSEYKQVG [V37D]" category="criterion not met"
sequence_record="IMNCCEQCGEYLPSKGAGNNVLVIDGQQKRSCCQSCVSEYKQVG [F31S]" category="criterion not met"
sequence_record="IMNCCEQCGEYLPSKGAGNNVLVIDKQQKRFCCQSCVSEYKQVG [G26K]" category="criterion not met"
sequence_record="IMNCCEQCFEYLPSKGAGNNVLVIDGQQKRFCCQSCVSEYKQVG [G9F]" category="criterion met"
sequence_record="IMNCCEQCGEYLPTKGAGNNVLVIDGQQKRFCCQSCVSEYKQVG [S14T]" category="criterion met"
sequence_record="IMNCCEQCGEYLPSKGAGNNVLVIDGQQKRFCDQSCVSEYKQVG [C33D]" category="criterion met"
sequence_record="IMNCCEQCGEYLPSKGAGNNVLVIDGQQKRFCCSSCVSEYKQVG [Q34S]" category="criterion met"
sequence_record="IMNCCEQCGEYLWSKGAGNNVLVIDGQQKRFCCQSCVSEYKQVG [P13W]" category="criterion not met"
sequence_record="IMNCCEQSGEYLPSKGAGNNVLVIDGQQKRFCCQSCVSEYKQVG [C8S]" category="criterion not met"
sequence_record="IMNCCEQCGEYLPSKGAGNNVLVIDVQQKRFCCQSCVSEYKQVG [G26V]" category="criterion not met"
sequence_record="IMNCCEQCGEYLPSKGAGNNVLVIDGQQKRFCCQSLVSEYKQVG [C36L]" category="criterion not met"
sequence_record="IMNCCEQCGTYLPSKGAGNNVLVIDGQQKRFCCQSCVSEYKQVG [E10T]" category="criterion not met"
sequence_record="IMNCCEQCGEYLPSKGAGNNVLVIDGQHKRFCCQSCVSEYKQVG [Q28H]" category="criterion met"
sequence_record="IMNCCEQCGEYLPSKGAGNNVLGIDGQQKRFCCQSCVSEYKQVG [V23G]" category="criterion met"
sequence_record="IMNCCEQCGEYLPSKGAGNNVLVMDGQQKRFCCQSCVSEYKQVG [I24M]" category="criterion met"
sequence_record="IMNCCEQCWEYLPSKGAGNNVLVIDGQQKRFCCQSCVSEYKQVG [G9W]" category="criterion not met"
sequence_record="IMNCCEQCGEYLPSKGAGNNVLVIDGQQKRFCCQSCVSYYKQVG [E39Y]" category="criterion met"
sequence_record="IMNCCEYCGEYLPSKGAGNNVLVIDGQQKRFCCQSCVSEYKQVG [Q7Y]" category="criterion not met"
sequence_record="ISNCCEQCGEYLPSKGAGNNVLVIDGQQKRFCCQSCVSEYKQVG [M2S]" category="criterion met"
sequence_record="IMNCCEQCGEYLPSKGAGNNVLVIDGQQKRFCCQSGVSEYKQVG [C36G]" category="criterion not met"
sequence_record="IMNCCEQCGEYLPSKGAGNNVLVIDGQQKRFCCQMCVSEYKQVG [S35M]" category="criterion met"
